Reference for the values: patent US20040006120A1

Test system: food consumption by adult Sprague-Dawley rats
Test: Food intake by adult Sprague-Dawley rats
Type: in vivo, rat
Conditions: Dose 10, intraperitoneal; two hours following the onset of the dark cycle
This listing pairs compounds with measured Decrease in Food Intake (%).
Response body: numeric value in %, unit text excluded.

O=C(N[C@@H]1C[C@H]1c1c[nH]cn1)OCc1c(Cl)cccc1Cl    0.8

Supply measured Decrease in Food Intake (%) of CC(C)(C)CCOC(=O)N[C@@H]1C[C@H]1c1c[nH]cn1 in your reply.
−25.1

---

This listing pairs compounds with measured Decrease in Food Intake (%).
Tested on: food consumption by adult Sprague-Dawley rats
Test: Food intake by adult Sprague-Dawley rats
Format: in vivo, rat
Settings: Dose 10, intraperitoneal; two hours following the onset of the dark cycle
Marks after values point to notes of the source that are not given here.

O=C(CCCCC1CCCCC1)N1CCC(c2c[nH]cn2)CC1    67.6 ± 9.6* %

Supply measured Decrease in Food Intake (%) of O=C(N[C@@H]1C[C@H]1c1c[nH]cn1)OCCC1CCCCC1 in your reply.
32.6 ± 4.3* %

Supply measured Decrease in Food Intake (%) of O=C(N[C@@H]1C[C@H]1c1c[nH]cn1)OCC1CCCCC1 in your reply.
36.4 ± 3.3* %
